# study system: isolated recombinant JAK2 kinase domain (Homo sapiens (Human), UniProt O60674)
# Sequence (O60674 849-1124): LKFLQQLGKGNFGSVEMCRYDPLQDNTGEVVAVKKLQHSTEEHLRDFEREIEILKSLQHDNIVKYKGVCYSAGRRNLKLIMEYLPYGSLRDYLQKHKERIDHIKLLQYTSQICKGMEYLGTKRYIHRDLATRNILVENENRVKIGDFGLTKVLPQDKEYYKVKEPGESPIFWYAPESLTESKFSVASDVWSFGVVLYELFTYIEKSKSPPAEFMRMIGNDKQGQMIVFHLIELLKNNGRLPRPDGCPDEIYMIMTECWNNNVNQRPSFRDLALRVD
# protocol notes: JAK2 enzyme assay (Caliper LabChip, peptide phosphorylation)
# assay context: 25 μM ATP
pKi: −log10 of the molar value.
reported property: pKi

**Q:** Specify pKi for O=C(Nc1cn(CC(=O)N2CCN(CC3CCOCC3)CC2)nc1-c1cc(Cl)ccc1OC(F)F)c1cnn2cccnc12 and stop.
**A:** 9.05

**Q:** Identify the reported pKi for the following entry. CN1CCN(C2CCN(C(=O)Cn3cc(NC(=O)c4cnn5cccnc45)c(-c4cc(Cl)ccc4OC(F)F)n3)CC2)CC1
**A:** 8.78

(1) O=C(Nc1cn(CC(=O)N2CCC(NC3CCC3)CC2)nc1-c1cc(Cl)ccc1OC(F)F)c1cnn2cccnc12
(2) O=C1CCC(CNCCn2cc(NC(=O)c3cnn4cccnc34)c(-c3cc(Cl)ccc3OC(F)F)n2)O1 (stereo not shown)
**Q:** For 1 and 2 , which recorded pKi is lower? Answer with the label corresponding to your selection.
**A:** 1

---

# study system: isolated recombinant JAK1 kinase domain (Homo sapiens (Human), UniProt P23458)
# Sequence (P23458 875-1153): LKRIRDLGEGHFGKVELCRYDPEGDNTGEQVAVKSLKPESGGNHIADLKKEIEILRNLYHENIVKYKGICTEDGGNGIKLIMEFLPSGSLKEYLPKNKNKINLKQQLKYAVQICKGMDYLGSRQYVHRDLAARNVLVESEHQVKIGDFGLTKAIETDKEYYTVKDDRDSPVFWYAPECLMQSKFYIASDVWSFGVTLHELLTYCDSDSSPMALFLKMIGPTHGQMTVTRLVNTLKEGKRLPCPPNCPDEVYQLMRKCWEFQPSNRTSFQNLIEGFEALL
# protocol notes: JAK1 enzyme assay (Caliper LabChip, peptide phosphorylation)
# Type: biochemical
# assay context: isolated recombinant JAK1 kinase domain, 25 μM ATP
pKi: −log10 of the molar value.
reported property: pKi

**Q:** Tell me pKi of O=C1CC(N2CCN(C(=O)Cn3cc(NC(=O)c4cnn5cccnc45)c(-c4cc(Cl)ccc4OC(F)F)n3)CC2)CCO1 (stereo not drawn) when tested on isolated recombinant JAK1 kinase domain (Homo sapiens (Human), UniProt P23458).
**A:** 9.41

(P) O=C(Nc1cn(CC(=O)N2C[C@H]3CN(CC4CCN(C(=O)C5CCOCC5)CC4)C[C@H]3C2)nc1-c1cc(Cl)ccc1OC(F)F)c1cnn2cccnc12
(Q) O=C(Nc1cn(CC(=O)N2CCN(Cc3ccccc3)CC2)nc1-c1cc(Cl)ccc1OC(F)F)c1cnn2cccnc12
**Q:** When their pKi values are compared, which is larger, P or Q ? Give the chosen item's label as your response.
**A:** Q
(Q: 9.51, P: 9.29)

---

# study system: isolated recombinant JAK2 kinase domain (Homo sapiens (Human))
# protocol notes: JAK2 enzyme assay (Caliper LabChip, peptide phosphorylation)
# assay context: 25 μM ATP
pKi: −log10 of the molar value. Structures can show the parent of a compound that is named as a salt.
reported property: pKi

**Q:** For isolated recombinant JAK2 kinase domain (Homo sapiens (Human)), give the measured pKi of the entry CC1(N2CCOCC2)CCN(C(=O)Cn2cc(NC(=O)c3cnn4cccnc34)c(-c3cc(Cl)ccc3OC(F)F)n2)CC1 [Example 410]
**A:** 8.90

(a) CN(C)C1CCN(C(=O)c2ccc(-n3cc(NC(=O)c4cnn5cccnc45)c(-c4cc(Cl)ccc4OC(F)F)n3)cc2)CC1 [Example 302, hydrochloride]
(b) Nc1nn2cccnc2c1C(=O)Nc1cn(CC(=O)N2C[C@H]3CN(CC4CC4)C[C@H]3C2)nc1-c1cc(Cl)ccc1OC(F)F [Example 57]
**Q:** Higher pKi: a or b ? Return value: the label identifying the chosen record.
**A:** b
(b: 9.89, a: 8.95)

---

# Tested on: JAK1-dependent STAT6 phosphorylation downstream of IL-13 stimulation in TF-1 human erythroleukemia cells
# protocol notes: JAK1 pathway assay in TF-1 cells (IL-13-pSTAT6, MSD)
# Type: cell-based
# assay context: Homo sapiens, TF-1, TF-1 cells, read-out: IL13-pSTAT6 EC50_TF-1
Structures can show the parent of a compound that is named as a salt.
reported property: EC50 (nM)

**Q:** Dear colleague, please send me the reported EC50 for CN1CC[C@H]2[C@H](CCN2C(=O)Cn2cc(NC(=O)c3cnn4cccnc34)c(-c3cc(Cl)ccc3OC(F)F)n2)C1 when you can.
**A:** 13.7

(A) CCCCN(C)CC#Cc1nc(-c2cc(Cl)ccc2OC(F)F)c(NC(=O)c2cnn3cccnc23)s1
(B) CN1C[C@H]2CCN(C(=O)Cn3cc(NC(=O)c4cnn5cccnc45)c(-c4cc(Cl)ccc4OC(F)F)n3)C[C@H]2C1
(C) O=C(Nc1cn(CC(=O)N2CCC3(CCN(CC4CCN(C(=O)OCc5ccccc5)CC4)C3)CC2)nc1-c1cc(Cl)ccc1OC(F)F)c1cnn2cccnc12
(D) CCN1C[C@@H]2CN(C(=O)Cn3cc(NC(=O)c4cnn5cccnc45)c(-c4cc(Cl)ccc4OC(F)F)n3)C[C@@H]2C1 [Example 5, hydrochloride]
(E) CCNC1CCN(C(=O)Cn2cc(NC(=O)c3c(N)nn4cccnc34)c(-c3cc(Cl)ccc3OC(F)F)n2)CC1
**Q:** Rank the items in ascending order with respect to EC50. In plain terms: list the labels in the order you were asked to.
**A:** D, C, E, B, A

---

# study system: isolated recombinant JAK2 kinase domain (Homo sapiens (Human), UniProt O60674)
# protocol notes: JAK2 enzyme assay (Caliper LabChip, peptide phosphorylation)
# assay context: 25 μM ATP
reported property: Ki (nM)

The examples below pair each entry with its known result.
**Q:** Return value of Ki for input O=C(Nc1cn([C@H]2CCNC[C@@H]2O)nc1-c1cc(Cl)ccc1OC(F)F)c1cnn2cccnc12 , no commentary.
**A:** 2.7

**Q:** Give the value of Ki reported for the following: CNC(=O)CCCN1CCC(n2cc(NC(=O)c3c(N)nn4cccnc34)c(-c3cc(Cl)ccc3OC(F)F)n2)CC1
**A:** 0.2

**Q:** Specify measured Ki for O=C(Nc1cn(CC(=O)N2CCC(N3CCNCC3=O)CC2)nc1-c1cc(Cl)ccc1OC(F)F)c1cnn2cccnc12 .
**A:** 0.87

(A) CN1C[C@H]2CN(C(=O)Cn3cc(NC(=O)c4cnn5cccnc45)c(-c4cc(Cl)ccc4OC(F)F)n3)C[C@@]2(c2ccccc2)C1
(B) CN(CC1(C#N)CCCCC1)C1CCN(C(=O)c2ccc(-n3cc(NC(=O)c4cnn5cccnc45)c(-c4cc(Cl)ccc4OC(F)F)n3)cc2)CC1
(C) CN1CCCN(C(=O)Cn2cc(NC(=O)c3cnn4cccnc34)c(-c3cc(Cl)ccc3OC(F)F)n2)CC1
(D) NC(=O)CCCN1CCC(n2cc(NC(=O)c3cnn4cccnc34)c(-c3cc(Cl)ccc3OC(F)F)n2)CC1
**Q:** Arrange the 4 molecules from largest to smallest Ki. Rank them, then answer with their labels in that order.
**A:** B, C, A, D
(B: 9.03 nM, C: 2.38 nM, A: 0.36 nM, D: 0.25 nM)

---

# study system: isolated recombinant JAK2 kinase domain (Homo sapiens (Human))
# protocol notes: JAK2 enzyme assay (Caliper LabChip, peptide phosphorylation)
# assay context: 25 μM ATP
pKi: −log10 of the molar value.
reported property: pKi

**Q:** Indicate its recorded pKi; the compound in question is O=C1CC(N2CCN(C(=O)Cn3cc(NC(=O)c4cnn5cccnc45)c(-c4cc(Cl)ccc4OC(F)F)n3)CC2)CCO1 (stereo not shown) [Example 347]
**A:** 9.12

(A) CC1(CN2C[C@@H]3CN(C(=O)Cn4cc(NC(=O)c5cnn6cccnc56)c(-c5cc(Cl)ccc5OC(F)F)n4)C[C@@H]3C2)COC1 [Example 39]
(B) Nc1nn2cccnc2c1C(=O)Nc1cn(C2CCN(CCCN3CCNC3=O)CC2)nc1-c1cc(Cl)ccc1OC(F)F [Example 163]
(C) CN1CCN(C(=O)Cn2cc(NC(=O)c3c(N)nn4cccnc34)c(-c3cc(Cl)ccc3OC(F)F)n2)CC1 [Example 243]
**Q:** I would appreciate it if you could sort these 3 compounds by pKi, starting from the smallest number. Labels, requested order.
**A:** A, C, B
(A: 9.06, C: 9.44, B: 9.72)

---

# study system: isolated recombinant JAK2 kinase domain (Homo sapiens (Human), UniProt O60674)
# protocol notes: JAK2 enzyme assay (Caliper LabChip, peptide phosphorylation)
# assay context: 25 μM ATP
pKi: −log10 of the molar value. Counter-ions that a name gives are not always drawn.
reported property: pKi

Previously resolved entries follow.
**Q:** Check the records and state pKi for CN1CCC2(C1)CN(C(=O)Cn1cc(NC(=O)c3cnn4cccnc34)c(-c3cc(Cl)ccc3OC(F)F)n1)C2 [Example 211]
**A:** 8.86

**Q:** Query pKi for CN(C)C(=O)[C@@H]1CCCN1CC1CCN(C(=O)Cn2cc(NC(=O)c3cnn4cccnc34)c(-c3cc(Cl)ccc3OC(F)F)n2)CC1 [Example 423]
**A:** 8.55

**Q:** Please report the measured pKi for O=C(Nc1sc(N2CCN(CC3CC3)CC2)nc1-c1cc(Cl)ccc1OC(F)F)c1cnn2cccnc12 [Example 207]
**A:** 9.16

**Q:** For the molecule NC(=O)CCN1CCC(n2cc(NC(=O)c3c(N)nn4cccnc34)c(-c3cc(Cl)ccc3OC(F)F)n2)CC1 [Example 165] , give its measured pKi value.
**A:** 9.82

**Q:** Annotate the molecule CC(C#N)CN(C)C1CCN(C(=O)Cn2cc(NC(=O)c3cnn4cccnc34)c(-c3cc(Cl)ccc3OC(F)F)n2)CC1 (stereo not shown) [Example 413] with its measured pKi.
**A:** 9.13

**Q:** // fetch pKi given entry O=C(Nc1cn(CC(=O)N2C[C@H]3CN(CCCO)C[C@H]3C2)nc1-c1cc(Cl)ccc1OC(F)F)c1cnn2cccnc12 [Example 14]
**A:** 8.95

**Q:** Report measured pKi; entry is O=C(Nc1cn(CC(=O)N2CCC(O)(c3ccncc3)CC2)nc1-c1cc(Cl)ccc1OC(F)F)c1cnn2cccnc12 [Example 276]
**A:** 9.74

**Q:** Quickly give me recorded pKi for CN1C[C@@H]2CN(C(=O)Cn3cc(NC(=O)c4cnn5ccc(N)nc45)c(-c4cc(Cl)ccc4OC(F)F)n3)C[C@@H]2C1 [Example 7, hydrochloride]
**A:** 9.02

**Q:** Provide measured pKi value, entry: CN(C)C1CCN(Cc2nc(-c3cc(Cl)ccc3OC(F)F)c(NC(=O)c3cnn4cccnc34)s2)CC1 [Example 260]
**A:** 8.58

**Q:** Return value of pKi for input O=C(Nc1cn(CC(=O)N2CCC(OCCO)CC2)nc1-c1cc(Cl)ccc1OC(F)F)c1cnn2cccnc12 [Example 275] , no commentary.
**A:** 9.05

(I) COc1ccc(CCN(C)C2CCN(C(=O)Cn3cc(NC(=O)c4cnn5cccnc45)c(-c4cc(Cl)ccc4OC(F)F)n3)CC2)cc1 [Example 95]
(II) CN[C@@H]1CCC[C@H](n2cc(NC(=O)c3c(N)nn4cccnc34)c(-c3cc(Cl)ccc3OC(F)F)n2)C1 [Example 296]
**Q:** Problem: Given the entries I and II , determine which has the lower reported pKi. When you have decided, please share the label of that item.
**A:** I

The values you see were collected from patent US9346815B2.
